Readings of pIC50 for the listed compounds
assaySystem: fully phosphorylated, active Mouse ERK2 protein (Mus musculus (Mouse), UniProt P63085)
Sequence (P63085 whole entry): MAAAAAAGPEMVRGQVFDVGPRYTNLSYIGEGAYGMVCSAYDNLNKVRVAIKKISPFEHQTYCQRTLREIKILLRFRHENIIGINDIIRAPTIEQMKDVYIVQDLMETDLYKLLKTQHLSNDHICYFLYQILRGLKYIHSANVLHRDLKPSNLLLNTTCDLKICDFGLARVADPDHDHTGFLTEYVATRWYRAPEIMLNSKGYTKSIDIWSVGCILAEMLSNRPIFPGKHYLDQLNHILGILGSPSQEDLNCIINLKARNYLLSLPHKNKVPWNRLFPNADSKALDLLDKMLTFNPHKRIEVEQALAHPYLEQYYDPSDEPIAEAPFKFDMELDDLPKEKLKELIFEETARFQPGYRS
assayName: Active ERK2 Assay (IMAP format)
Assay type: biochemical
testContext: read-out: AERK2 IC50
pIC50: −log10 of the molar value.

Entry CS[C@@]1(C(=O)Nc2ccc3[nH]nc(-c4ccc(F)cc4)c3c2)CCN(CC(=O)N2CC=C(c3ccc(-c4ncccn4)cc3)CC2)C1 [Example 613] , system fully phosphorylated, active Mouse ERK2 protein (Mus musculus (Mouse), UniProt P63085): what pIC50 was measured? 8.00

Input CO[C@@]1(C(=O)Nc2ccc3[nH]nc(-c4ccnc(C5CC5)c4)c3c2)CCN(CC(=O)N2CC=C(c3ncc(-c4ncccn4)s3)CC2)C1 [Example 777] 7.74 to 9.80

Others:
Entry CO[C@@]1(C(=O)Nc2ccc3[nH]nc(-c4ccnc(C(F)F)c4)c3c2)CCN(CC(=O)N2CC=C(c3ccc(-c4ncccn4)cc3)CC2)C1 [Example 785] , system fully phosphorylated, active Mouse ERK2 protein (Mus musculus (Mouse), UniProt P63085): what pIC50 was measured? 7.74 to 9.80

====

assaySystem: fully phosphorylated, active Mouse ERK2 protein (Mus musculus (Mouse), UniProt P63085)
assayName: Active ERK2 Assay (IMAP format)
Type: biochemical
testContext: AERK2 IC50
valueKind: pIC50
Convention used: pIC50 is expressed as -log10 of the molar concentration.

I have this compound here, "O=C(Nc1ccc2[nH]nc(-c3ccncc3)c2c1)[C@@H]1CCN(CC(=O)N2CCN(c3ccc(-c4ncccn4)cc3)CC2)C1" , and I need its recorded pIC50. 9.10

====

assayName: Cassette Accelerating Rapid Rat Screen (CARRS), AUC during the first 6 hours
Assay type: in vivo, Male Sprague-Dawley rats
testContext: male, Sprague-Dawley, plasma, 10 mg/kg, PO, AUC during the first 6 hours (AUC6hr)
valueKind: AUC (µM·h)

Solved entries:
I have this molecule here, "CS[C@@]1(C(=O)Nc2ccc3[nH]nc(-c4ccc(F)cc4)c3c2)CCN(CC(=O)N2CC=C(c3ccc(-c4ncccn4)cc3)CC2)C1" , and I need its recorded AUC. 25.9

Input "CO[C@@]1(C(=O)Nc2ccc3[nH]nc(-c4ccc(F)cc4)c3c2)CCN(CC(=O)N2CC=C(c3ccc(-c4ncccn4)cc3F)CC2)C1" 1.1

Input "CO[C@@]1(C(=O)Nc2ccc3[nH]nc(-c4ccc(F)cc4)c3c2)CCN(CC(=O)N2CCC(c3ccc(-c4ncccn4)cc3)CC2)C1" 2.2

Input "CO[C@@]1(C(=O)Nc2ccc3[nH]nc(-c4ccnc(C5CC5)c4)c3c2)CCN(CC(=O)N2CC=C(c3ccc(-c4ncccn4)cc3)CC2)C1" 1.2

(A) CCNc1nnc(-c2ccc(C3=CCN(C(=O)CN4CC[C@@](OC)(C(=O)Nc5ccc6[nH]nc(-c7ccc(F)cc7)c6c5)C4)CC3)c(F)c2)o1
(B) COC[C@@]1(C(=O)Nc2ccc3[nH]nc(-c4ccnc(C5CC5)c4)c3c2)CCN(CC(=O)N2CC=C(c3ccc(-c4ncccn4)cc3)CC2)C1
// pick min by AUC: A , B The response must carry the label of the picked entry. A
(A: 1.13 µM·h, B: 7.22 µM·h)

====

Readings of pIC50 for the listed compounds
assaySystem: UniProt P63085
assayName: Active ERK2 Assay (IMAP format)
Type: biochemical
testContext: read-out: AERK2 IC50
pIC50: −log10 of the molar value.

Entry "CO[C@@]1(C(=O)Nc2ccc3[nH]nc(-c4ccnc(C(F)F)c4)c3c2)CCN(CC(=O)N2CCC(C)(c3ccc(-c4ncccn4)cc3)CC2)C1" , system UniProt P63085: what pIC50 was measured? 7.74 to 9.80

Input "CO[C@@]1(C(=O)Nc2ccc3[nH]nc(-c4cc[n+]([O-])c(C5CC5)c4)c3c2)CCN(CC(=O)N2CC=C(c3ccc(-c4ncccn4)cc3)CC2)C1" 7.74 to 9.80

Input "CO[C@@]1(C(=O)Nc2ccc3[nH]nc(-c4ccc(F)c(CO)c4)c3c2)CCN(CC(=O)N2CC=C(c3ccc(-c4ncccn4)cc3)CC2)C1" 8.82 to 9.80

Input "CS(=O)(=O)[C@@]1(C(=O)Nc2ccc3[nH]nc(-c4ccnc(C5CC5)c4)c3c2)CCN(CC(=O)N2CCC(c3ccc(-c4ncccn4)cc3)CC2)C1" 7.74 to 9.80

Input "CO[C@@]1(C(=O)Nc2ccc3[nH]nc(-c4ccnc(C(F)F)c4)c3c2)CCN(CC(=O)N2CCC(c3ccc(-c4ncccn4)cc3)CC2)C1" 7.74 to 9.80

Input "O=C(Nc1ccc2[nH]nc(-c3ccncc3)c2c1)[C@@H]1CCN(CC(=O)N2CCc3ccccc3C2)C1" 7.74 to 9.80

Input C=CCC1(C(=O)Nc2ccc3[nH]nc(-c4ccncc4)c3c2)CCN(CC(=O)N2CCN(c3ccc(-c4ncc(F)cn4)cc3)CC2)C1 (stereo not drawn) 7.74 to 9.80

Input "COCCOc1ccc(-c2n[nH]c3ccc(NC(=O)[C@]4(OC)CCN(CC(=O)N5CC=C(c6ncc(-c7ncccn7)cc6F)CC5)C4)cc23)cc1" 7.74 to 9.80

Input "CO[C@@]1(C(=O)Nc2ccc3[nH]nc(-c4ccc5c(c4)OCO5)c3c2)CCN(CC(=O)N2CCN(c3ccc(-c4ncccn4)cn3)C[C@H]2C)C1" 7.74 to 9.80

====

assaySystem: fully phosphorylated, active Mouse ERK2 protein (Mus musculus (Mouse))
assayName: Active ERK2 Assay (IMAP format)
Type: biochemical
testContext: read-out: AERK2 IC50
pIC50: −log10 of the molar value.
Readings of pIC50 for the listed molecules

Solved entries:
I have this molecule here, COCCOc1cc(-c2n[nH]c3ccc(NC(=O)[C@]4(OC)CCN(CC(=O)N5CC=C(c6ccc(-c7ncccn7)cc6)CC5)C4)cc23)ccc1F [Example 741] , and I need its recorded pIC50. 7.74 to 9.80

Input CNC(=O)c1n[nH]c2ccc(NC(=O)[C@@H]3CCN(CC(=O)N4CCC(c5ccc(-c6ncccn6)cc5)CC4)C3)cc12 [Example 176] 7.74 to 9.80

Note: attention shifts to another entry.
I have this molecule here, CO[C@@]1(C(=O)Nc2ccc3[nH]nc(-c4ccc(F)cc4)c3c2)CCN(CC(=O)N2CC=C(c3ccc(-c4ncc(N)cn4)cc3)CC2)C1 [Example 823] , and I need its recorded pIC50. 7.74 to 9.80
